Each entry below carries its recorded IC50 (µg/mL), pseudovirus neutralization.
Biological target: HIV-1 Env of isolate MGRM-A-013 (HIV-1)
Experiment: cell-based or functional assay
Your answer should be a plain number; it is taken to be in µg/mL.

• PGT-126 (antibody, V domains shown) VH: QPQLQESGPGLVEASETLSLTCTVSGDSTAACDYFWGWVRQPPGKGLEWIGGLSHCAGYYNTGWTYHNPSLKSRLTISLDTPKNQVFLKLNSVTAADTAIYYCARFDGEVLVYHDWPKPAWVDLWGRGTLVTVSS VL: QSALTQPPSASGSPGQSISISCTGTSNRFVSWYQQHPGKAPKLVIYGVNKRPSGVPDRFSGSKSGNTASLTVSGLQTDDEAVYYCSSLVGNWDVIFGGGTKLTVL = 0.006
• PGT-123 (antibody, V domains shown) VH: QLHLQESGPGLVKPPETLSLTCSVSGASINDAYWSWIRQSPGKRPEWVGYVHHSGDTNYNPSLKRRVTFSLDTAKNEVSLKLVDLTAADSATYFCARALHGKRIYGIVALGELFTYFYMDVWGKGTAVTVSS VL: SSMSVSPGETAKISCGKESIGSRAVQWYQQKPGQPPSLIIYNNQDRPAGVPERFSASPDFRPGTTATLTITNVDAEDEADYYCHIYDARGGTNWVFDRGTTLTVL = 0.565
• PGT-125 (antibody, V domains shown) VH: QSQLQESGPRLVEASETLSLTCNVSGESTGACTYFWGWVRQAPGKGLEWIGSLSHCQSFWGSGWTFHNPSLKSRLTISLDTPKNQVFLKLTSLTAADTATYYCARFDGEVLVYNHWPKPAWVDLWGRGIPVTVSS VL: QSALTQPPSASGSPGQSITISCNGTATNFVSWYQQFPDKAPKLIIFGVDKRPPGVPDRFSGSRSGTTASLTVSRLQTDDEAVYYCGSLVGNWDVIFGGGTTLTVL = 0.014

# evaluate next
I would be grateful if you could share the reported IC50 (µg/mL), pseudovirus neutralization for PGT-127 (antibody, V domains shown) VH: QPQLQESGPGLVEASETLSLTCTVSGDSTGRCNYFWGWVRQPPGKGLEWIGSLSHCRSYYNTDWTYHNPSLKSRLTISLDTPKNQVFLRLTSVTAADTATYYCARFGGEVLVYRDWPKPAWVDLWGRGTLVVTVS VL: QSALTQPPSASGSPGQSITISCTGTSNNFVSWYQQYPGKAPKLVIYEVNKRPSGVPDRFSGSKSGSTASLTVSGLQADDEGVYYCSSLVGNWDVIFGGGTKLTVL .
0.029
